species: Mus musculus; assay: Antagonism of methyl phenidate-induced gnawing behavior in mice; format: functional; conditions: Mus musculus; read-out: ED50
Can you tell me log10 ED50 for the items I'm about to list?
Short version: log10 scale, ED50, µmol/kg.

CN1CCN(C2=Nc3cc(Cl)ccc3Nc3ccccc32)CC1    1.99
CN1CCN(C2CC(c3ccccc3F)c3ccc(Cl)cc32)CC1(C)C (centres undefined)    1.53
CN1CCN(C2CC(c3ccc(F)cc3)c3cccc(F)c32)CC1(C)C (centres undefined)    0.84
Cc1ccc2c(c1)C(N1CCN(C)C(C)(C)C1)CC2c1ccc(F)cc1 (centres undefined)    0.15

Go through the list and state log10 ED50 for each entry.
1. Fc1ccc(C2CC(N3CCN4CCCCC4C3)c3cc(Cl)ccc32)cc1 (centres undefined)
2. CN1CCN(C2CC(c3ccc(F)cc3)c3ccc(C(F)(F)F)cc32)CC1(C)C (centres undefined)
3. CC1CN(C2CC(c3ccc(F)cc3)c3ccc(Cl)cc32)CC(C)N1C (centres undefined)
4. CN1CCN(C2CC(c3ccc(F)cc3)c3ccc(Cl)cc32)CC12CCCC2 (stereo in doubt; 34)
5. Cc1ccc2c(c1)C(N1CCNC(C)(C)C1)CC2c1ccc(F)cc1 (centres undefined)
6. CC1(C)CN(C2CC(c3ccc(F)cc3)c3ccc(C(F)(F)F)cc32)CCN1 (centres undefined)

1. 1.15
2. 0.00
3. 1.72
4. 0.23
5. 1.52
6. 0.43

I would be grateful if you could provide log10 ED50 for each of the following entries.
1. CN1CCN(C2CC(c3ccc(F)cc3)c3ccc(Br)cc32)CC1(C)C (centres undefined)
2. CN1CCN(C2CC(c3ccc(F)cc3)c3ccc(Cl)cc32)CC1(C)C (stereo in doubt; (-)-28)
3. CC1CN(C2CC(c3ccc(F)cc3)c3ccc(Cl)cc32)CCN1C (centres undefined)
4. CN1CCN(C2CC(c3ccsc3)c3ccc(Cl)cc32)CC1(C)C (centres undefined)

1. 0.18
2. -0.32
3. -0.57
4. 0.11

====

Consider the following compounds; for each one, report its IC50.
organism: Rattus norvegicus; experiment: In vitro inhibition of [3H]5-HT uptake in rat brain (minus pons, medulla oblongata and cerebellum) homogenates.; format: functional; details: Rattus norvegicus
One number for each entry, in µM.

CN1CCN(C2CC(c3ccc(F)cc3)c3ccc(Cl)cc32)CC12CCCC2 (single isomer, unassigned; (+))    1.8
OCCN1CCN(C2CC(c3ccc(F)cc3)c3ccc(Cl)cc32)CC12CCCC2 (single isomer, unassigned; (+))    2.4
CC(C)N1CCN(C2CC(c3ccc(F)cc3)c3ccc(Cl)cc32)CC1(C)C (single isomer, unassigned; (-))    3.5

Please give IC50, item by item, for the list that follows.
1. CN1CCN(C2CC(c3ccccc3)c3ccc(Cl)cc32)CC1(C)C (stereo in doubt; (+)-38)
2. CN1CCN(C2CC(c3ccc(F)cc3)c3ccccc32)CC1(C)C (single isomer, unassigned; (+))

[5.3, 5.2]

====

Assignment: determine reported ED50 for the given compounds.
species on record: Rattus norvegicus; experiment: Cataleptogenic effect in rats; assay type: functional
One number for each entry, in µM/kg.

Provide reported ED50 for each item, in the same order as listed.
1. CN1CCN(C2CC(c3ccc(F)cc3)c3ccc(Cl)cc32)CC12CCCC2 (stereo in doubt; (-)-34)
2. OCCN1CCN(C2CC(c3ccc(F)cc3)c3ccc(Cl)cc32)CC12CCCC2 (stereo in doubt; (-)-35)
3. OCCN1CCN(C2CC(c3ccc(F)cc3)c3ccc(Cl)cc32)CC12CCCC2 (stereo in doubt; 35)

[31, 2.7, 14]

====

target: D(2) dopamine receptor (Rattus norvegicus); experiment: Binding affinity against dopamine receptor D2
Sequence (P61169 whole entry): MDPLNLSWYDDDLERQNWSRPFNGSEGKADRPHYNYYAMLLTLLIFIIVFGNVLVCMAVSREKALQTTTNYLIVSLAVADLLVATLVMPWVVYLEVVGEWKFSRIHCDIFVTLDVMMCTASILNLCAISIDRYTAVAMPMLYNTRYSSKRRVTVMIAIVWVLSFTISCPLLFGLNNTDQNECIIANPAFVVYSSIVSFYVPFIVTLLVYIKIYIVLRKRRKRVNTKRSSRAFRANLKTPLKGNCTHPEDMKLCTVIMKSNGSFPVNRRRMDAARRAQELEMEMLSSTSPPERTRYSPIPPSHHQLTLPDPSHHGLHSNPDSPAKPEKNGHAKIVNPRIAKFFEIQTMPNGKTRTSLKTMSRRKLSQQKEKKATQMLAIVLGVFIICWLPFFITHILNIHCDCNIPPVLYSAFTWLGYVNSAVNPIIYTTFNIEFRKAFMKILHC
Flag rule - IC50 less than 80 nM flags rule met; the remaining entries get rule not met.

Some solved cases for reference:
CN1CCN(C2CC(c3ccc(F)cc3)c3ccc(C(F)(F)F)cc32)CC1 (centres undefined)    rule met
CN1CCN(C2CC(c3ccc(F)cc3)c3ccc(F)cc32)CC1(C)C (stereo in doubt; (-)-40)    rule met
CC1(C)CN(C2CC(c3ccc(F)cc3)c3ccc(Cl)cc32)CCN1 (stereo in doubt; (-)-41)    rule met
CN1CCN(C2CC(c3ccc(F)cc3)c3ccccc32)CC1(C)C (stereo in doubt; 39)    rule met
Cc1ccc2c(c1)C(N1CCN(CCO)CC1)CC2c1ccc(F)cc1 (centres undefined)    rule met

Is IC50 of CC1(C)CN(C2CC(c3ccc(F)cc3)c3ccc(Cl)cc32)CCN1 (single isomer, unassigned; (+)) strictly below 80 nM?
rule not met

Say whether its IC50 is strictly beneath 80 nM. Entry: COc1ccc2c(c1)C(N1CCN(CCO)CC1)CC2c1ccc(F)cc1 (centres undefined)
rule not met

Identify whether the molecule CN1CCN(C2CC(c3ccc(F)cc3)c3ccc(F)cc32)CC1(C)C (stereo in doubt; (+)-40) records IC50 below 80 nM.
rule not met

====

target: D(1A) dopamine receptor (Rattus norvegicus, UniProt P18901); assay: The compound was tested for the binding affinity against Dopamine receptor D1 activity is expressed as IC50 values.
Sequence (P18901 whole entry): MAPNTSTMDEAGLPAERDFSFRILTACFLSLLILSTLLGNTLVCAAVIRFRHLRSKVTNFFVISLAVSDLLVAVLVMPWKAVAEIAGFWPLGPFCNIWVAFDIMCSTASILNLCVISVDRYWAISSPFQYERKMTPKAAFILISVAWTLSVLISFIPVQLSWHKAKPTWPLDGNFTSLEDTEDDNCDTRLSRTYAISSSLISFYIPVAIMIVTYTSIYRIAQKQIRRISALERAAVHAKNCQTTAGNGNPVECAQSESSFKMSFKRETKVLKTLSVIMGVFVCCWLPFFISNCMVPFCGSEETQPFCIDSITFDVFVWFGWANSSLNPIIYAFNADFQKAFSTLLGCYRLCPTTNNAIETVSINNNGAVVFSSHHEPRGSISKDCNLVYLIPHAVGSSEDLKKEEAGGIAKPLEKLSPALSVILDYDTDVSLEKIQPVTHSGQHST
Answer each item with its documented pIC50.
Numbers only, as −log10 of the molar value.

Illustrative cases are given below, each with its answer.
OCCN1CCN(C2CC(c3ccc(F)cc3)c3c(Cl)cccc32)CC1 (centres undefined)    5.70
OCCN1CCN(C2CC(c3ccc(F)cc3)c3ccc(Cl)cc32)CC1 (centres undefined)    8.08
CN1CCN(C2CC(c3ccccc3)c3ccccc32)CC1 (centres undefined)    6.32

We next turn to a different molecule, shown below.
Data request, read-out pIC50, for OCCN1CCN(C2CC(c3ccc(F)cc3)c3cc(Cl)ccc32)CC1 (centres undefined)
5.74

====

target: D(1A) dopamine receptor (Rattus norvegicus, UniProt P18901); test: Binding affinity for dopamine receptor D1, activity is expressed as IC50 values.
measurement-type: pIC50
One number for each entry, as −log10 of the molar value.

Below, 4 compounds whose answers are already recorded.
CN1CCN(C2CC(c3ccccc3)c3ccc(Cl)cc32)CC1(C)C (stereo in doubt; (+)-38)    7.82
CC(C)N1CCN(C2CC(c3ccc(F)cc3)c3ccc(Cl)cc32)CC1(C)C (stereo in doubt; 29)    9.09
CN1CCN(C2CC(c3ccc(Cl)cc3)c3ccc(Cl)cc32)CC1(C)C (configuration not stated)    7.47
CN1CCN(C2CC(c3ccccc3)c3ccc(Cl)cc32)CC1 (configuration not stated)    7.80

Provide each entry's pIC50 from the list below.
1. CN1CCN(C2CC(c3ccc(F)cc3)c3ccccc32)CC1(C)C (stereo in doubt; (-)-39)
2. CN1CCN(C2CC(c3ccc(F)cc3)c3ccc(F)cc32)CC1(C)C (stereo in doubt; (-)-40)
3. OCCN1CCN(C2CC(c3ccc(F)cc3)c3ccc(Cl)cc32)CC12CCCC2 (single isomer, unassigned; (+))
4. CN1CCN(C2CC(c3ccc(F)cc3)c3ccc(Cl)cc32)CC1(C)C (stereo in doubt; 28)

1. 8.60
2. 9.15
3. 7.29
4. 8.89

Go through the items and report each one's pIC50.
1. CN1CCN(C2CC(c3ccc(F)cc3)c3ccccc32)CC1(C)C (single isomer, unassigned; (+))
2. CN1CCN(C2CC(c3ccccc3)c3ccc(Cl)cc32)CC1(C)C (single isomer, unassigned; (-))

1: 6.60; 2: 8.96

Hi! Can you tell me pIC50 for each of these compounds?
1. CN1CCN(C2CC(c3ccc(F)cc3)c3ccc(Cl)cc32)CC1(C)C (stereo in doubt; (-)-28)
2. OCCN1CCN(C2CC(c3ccc(F)cc3)c3ccc(Cl)cc32)CC12CCCC2 (stereo in doubt; 35)
3. CN1CCN(C2CC(c3ccc(F)cc3)c3ccc(C(F)(F)F)cc32)CC1 (configuration not stated)
4. CSc1ccc2c(c1)C(N1CCN(CCO)CC1)CC2c1ccc(F)cc1 (configuration not stated)
5. CN1CCN(C2CC(c3ccc(F)cc3)c3ccc(Cl)cc32)CC12CCCC2 (single isomer, unassigned; (+))
6. COc1ccc2c(c1)C(N1CCN(CCO)CC1)CC2c1ccc(F)cc1 (configuration not stated)

1: 9.17; 2: 8.72; 3: 7.77; 4: 7.41; 5: 8.18; 6: 6.68

I would be grateful if you could share the reported pIC50 for CN1CCN(C2CC(c3ccc(F)cc3)c3ccccc32)CC1(C)C (stereo in doubt; 39) .
8.52

====

Field: IC50. Provide a value for each of the compounds that follow.
biological target: Adrenergic receptor alpha-1 (Rattus norvegicus, UniProt P15823+P23944+P43140); test: Binding affinity against Alpha-1 adrenergic receptor, activity is expressed as IC50 values; type: protein assay
Numbers only, in nM.

Field: example entries. Status: answers known.
CC1(C)CN(C2CC(c3ccsc3)c3ccc(Cl)cc32)CCN1 (single isomer, unassigned; (-))    25
CN1CCN(C2CC(c3ccccc3)c3ccc(Cl)cc32)CC1(C)C (single isomer, unassigned; (-))    10
CC1(C)CN(C2CC(c3ccc(F)cc3)c3ccc(Cl)cc32)CCN1 (stereo in doubt; 41)    39
CN1CCN(C2CC(c3ccc(F)cc3)c3ccc(F)cc32)CC1(C)C (stereo in doubt; 40)    12
CN1CCN(C2CC(c3ccsc3)c3ccc(Cl)cc32)CC1(C)C (stereo unspecified)    14

Need IC50 of CN1CCN(C2CC(c3ccc(F)cc3)c3cc(Cl)ccc32)CC1(C)C (stereo unspecified) , thanks.
94
